B1: CPEB3 Ribozyme (parent)
chain: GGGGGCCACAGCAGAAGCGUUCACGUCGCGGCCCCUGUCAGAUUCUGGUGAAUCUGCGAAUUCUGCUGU

variants of: B1; experiment: self-cleavage, relative activity (ratio to wild type); higher = more cleavage; co-transcriptional
# self-cleavage per entry

Mutation Label: G41C U55G
self-cleavage: 0.369
//
Mutation Label: C7U A16G
self-cleavage: 0.908
//
Mutation Label: C24A U26C
self-cleavage: 0.507
//
Mutation Label: C34G U61A
self-cleavage: 0.458
//
Mutation Label: U20G G68U
self-cleavage: 0.183
//
Mutation Label: G17A U46A
self-cleavage: 0.634
//
Mutation Label: C12U U43A
self-cleavage: 0.868
//
Mutation Label: G28A A59G
self-cleavage: 0.17
//
Mutation Label: U55G A60U
self-cleavage: 0.291
//
Mutation Label: A8C G56U
self-cleavage: 0.908
//
Mutation Label: G41A G50U
self-cleavage: 0.686
//
Mutation Label: C18A A42G
self-cleavage: 0.208
//
Mutation Label: G19U U55A
self-cleavage: 0.209
//
Mutation Label: G3A U38C
self-cleavage: 0.419
//
Mutation Label: C7G U38A
self-cleavage: 0.264
//
Mutation Label: A10G U53A
self-cleavage: 0.651
//
Mutation Label: C12U C57U
self-cleavage: 0.317
//
Mutation Label: G14C A15U
self-cleavage: 0.179
//
Mutation Label: A16C G28U
self-cleavage: 0.113
//
Mutation Label: G30C C33A
self-cleavage: 0.248
//
Mutation Label: C12G A23C
self-cleavage: 0.628
//
Mutation Label: G58U G65U
self-cleavage: 0.948
//
Mutation Label: C34G C39G
self-cleavage: 0.455
//
Mutation Label: A15G C66G
self-cleavage: 0.862
//
Mutation Label: G1C C57U
self-cleavage: 0.07
//
Mutation Label: A10U G48A
self-cleavage: 1.02
//
Mutation Label: G17C A51C
self-cleavage: 0.165
//
Mutation Label: G4C A10G
self-cleavage: 0.748
//
Mutation Label: G56A U69A
self-cleavage: 1.03
//
Mutation Label: U38G C45G
self-cleavage: 0.27
//
Mutation Label: G28A A59C
self-cleavage: 0.185
//
Mutation Label: G28C U67A
self-cleavage: 0.182
//
Mutation Label: U26G G31U
self-cleavage: 0.242
//
Mutation Label: C27G G37U
self-cleavage: 0.165
//
Mutation Label: A13G C66U
self-cleavage: 0.756
//
Mutation Label: U21C U46C
self-cleavage: 0.89
//
Mutation Label: G14A C33U
self-cleavage: 0.747
//
Mutation Label: C34U C63U
self-cleavage: 1
//
Mutation Label: A10C U38A
self-cleavage: 0.869
//
Mutation Label: C34U G48C
self-cleavage: 0.974
//
Mutation Label: C54G U64C
self-cleavage: 0.542
//
Mutation Label: C54G C66G
self-cleavage: 0.533
//
Mutation Label: A10G A59G
self-cleavage: 0.925
//
Mutation Label: U21A C32U
self-cleavage: 0.993
//
Mutation Label: G3U G68C
self-cleavage: 0.548
//
Mutation Label: C27U U38G
self-cleavage: 0.17
